B1: CPEB3 Ribozyme (parent)
chain: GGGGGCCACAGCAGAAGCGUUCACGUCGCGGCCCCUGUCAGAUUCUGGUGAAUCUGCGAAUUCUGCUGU

Variants of: B1
Experiment: self-cleavage, relative activity (ratio to wild type); higher = more cleavage; co-transcriptional
Please enter true where self-cleavage is greater than or equal to 0.3, and false where it is lower.

// inclusive: self-cleavage at least 0.3? input: GGGGGCCACAGGAGAAGCGUUCACGUCGCAGCCCCUGUCAGAUUCUGGUGAAUCUGCGAAUUCUGCUGU [C12G G30A]
true

// inclusive: self-cleavage at least 0.3? input: GGGGGCCACAGCAGAAGCGUUAACGUCGCGGCCCCUGUCAGACUCUGGUGAAUCUGCGAAUUCUGCUGU [C22A U43C]
false

// inclusive: self-cleavage at least 0.3? input: GGGGGCCACAGCAGAAGCGUUCACGUCGCAGCCCCUGUCAGAUUCUGGUGAAUCUGCGAAGUCUGCUGU [G30A U61G]
true

// inclusive: self-cleavage at least 0.3? input: GGGGGCCAAAGCAGAAGCGUUCACGUCGCGGCCCCUGUCAGGUUCUGGUGAAUCUGCGAAUUCUGCUGU [C9A A42G]
true

// inclusive: self-cleavage at least 0.3? input: GGGGGCCACAGCAGAAGUGUUCACGUCGCGGCCGCUGUCAGAUUCUGGUGAAUCUGCGAAUUCUGCUGU [C18U C34G]
true

// inclusive: self-cleavage at least 0.3? input: GGGGGCCACAGCAGAAGCGUUCAUGUCGCGGCCCCUGUCAGAUUCUGGUGAAUCGGCGAAUUCUGCUGU [C24U U55G]
true

// inclusive: self-cleavage at least 0.3? input: GGGGGCCACAGCAGACGCGAUCACGUCGCGGCCCCUGUCAGAUUCUGGUGAAUCUGCGAAUUCUGCUGU [A16C U20A]
false

// inclusive: self-cleavage at least 0.3? input: GGGGGCCACAGCAGAAGCGUUCACGUCGCGGCACCUGUCCGAUUCUGGUGAAUCUGCGAAUUCUGCUGU [C33A A40C]
true

// inclusive: self-cleavage at least 0.3? input: GGGGGCCACAGCAGAAGCGUUCAUGUCACGGCCCCUGUCAGAUUCUGGUGAAUCUGCGAAUUCUGCUGU [C24U G28A]
false

// inclusive: self-cleavage at least 0.3? input: GGAGGCCACAGCAGAAGCGUUCACGUCGCGGCCCCUGUCAGAUUCUAGUGAAUCUGCGAAUUCUGCUGU [G3A G47A]
true

// inclusive: self-cleavage at least 0.3? input: GGGGCCCACAGCAGAAGCGUUCACGUCGCGGCCCCUGUCUGAUUCUGGUGAAUCUGCGAAUUCUGCUGU [G5C A40U]
false

// inclusive: self-cleavage at least 0.3? input: GGGGGCCACAGCAGAAGCGAUCACGUCGCGGCCCCUGUCAGAUUGUGGUGAAUCUGCGAAUUCUGCUGU [U20A C45G]
false

// inclusive: self-cleavage at least 0.3? input: GGGGGCCCCAGCAGAAGCGUUCACGUCGCGGCCCCUGUCAGAUUCUGGUGAAUCUGCUAAUUCUGCUGU [A8C G58U]
true

// inclusive: self-cleavage at least 0.3? input: GGGGGCCACAGCAGAAGCGUUCACGUCGCGGACCCUGUCAGAUUCUUGUGAAUCUGCGAAUUCUGCUGU [C32A G47U]
true

// inclusive: self-cleavage at least 0.3? input: GUGGGCCACAGCAGAAGCGUUCACGUCGCGGCCCCUGUCAGAUUCUGGUGAAUCUGCGAAUUCUGCUGA [G2U U69A]
false

// inclusive: self-cleavage at least 0.3? input: GGGGGCCCCAGCAGAAGCGUUCACGACGCGGCCCCUGUCAGAUUCUGGUGAAUCUGCGAAUUCUGCUGU [A8C U26A]
true

// inclusive: self-cleavage at least 0.3? input: GGGGGCCACAGCAGAAGCGUUCACGCCGCGGCCCCUGUCAGAUUCUGGUAAAUCUGCGAAUUCUGCUGU [U26C G50A]
true

// inclusive: self-cleavage at least 0.3? input: GGGGGCCACAGCAGAAGCGUUCACGUCGCGGCCCCUGUCAGAUUCUGGUGACUCUGCGAAUUAUGCUGU [A52C C63A]
true

// inclusive: self-cleavage at least 0.3? input: GGGGGCCACAGCAGAAGCGUUCACGUCGCGGCCCCUGUCAGAUUCAGGUGAAUUUGCGAAUUCUGCUGU [U46A C54U]
true

// inclusive: self-cleavage at least 0.3? input: GGGGGCCACAGCAGAAGCGUUCACGUCGCGGCCCGUGUCAGAUUCUGGUGAAUCUGCGAAUUUUGCUGU [C35G C63U]
true

// inclusive: self-cleavage at least 0.3? input: GGGGGCCACAGCAGAAGCGUUCACGUGGCGGCCCCUGUCAGAUUCUGGUGAAUCUGCGAAGUCUGCUGU [C27G U61G]
false

// inclusive: self-cleavage at least 0.3? input: GGGGGCCACAGCAGAAGCGUACACGUCGCGGCCCCUGUCAGAUUCUGGUGAAUCUGCGAAUUCUGCGGU [U21A U67G]
true

// inclusive: self-cleavage at least 0.3? input: GGGGGCCACAGCAGAAGCGUUCACGUCGAGGCCCCGGUCAGAUUCUGGUGAAUCUGCGAAUUCUGCUGU [C29A U36G]
false

// inclusive: self-cleavage at least 0.3? input: GGGGGCCACAGCAGAAGCGUUCACGUCGCGGCCCCUGCCAGAUUCUGCUGAAUCUGCGAAUUCUGCUGU [U38C G48C]
true

// inclusive: self-cleavage at least 0.3? input: GGGGGACACAGCAGUAGCGUUCACGUCGCGGCCCCUGUCAGAUUCUGGUGAAUCUGCGAAUUCUGCUGU [C6A A15U]
false

// inclusive: self-cleavage at least 0.3? input: GGGGGACACAGCAGAAGCGUUGACGUCGCGGCCCCUGUCAGAUUCUGGUGAAUCUGCGAAUUCUGCUGU [C6A C22G]
false

// inclusive: self-cleavage at least 0.3? input: GGGGGCCACGGCAGAAGCGUUCACGUCGCGGCCCCUGUCAGAUUCUGGUGAAUCUGCUAAUUCUGCUGU [A10G G58U]
true

// inclusive: self-cleavage at least 0.3? input: GGGGGCCACAGCAGAAGCGUUCACGUCGCGGCCCCUGUCAGCUUCUGGUGAAUCUGCGUAUUCUGCUGU [A42C A59U]
true

// inclusive: self-cleavage at least 0.3? input: GGGGGCCACAGCAGAAGCGUUCACGUCGCGGCCCCUGUCAGAUUCUGGUAAAUCUGCGAAUUCCGCUGU [G50A U64C]
true

// inclusive: self-cleavage at least 0.3? input: GGGGGCCACAGCAGAAGCGUUCACGUCGCGGCCCCUGUCAGAUACUGGUGAAUCUGCGAAUUCUGAUGU [U44A C66A]
true

// inclusive: self-cleavage at least 0.3? input: GGGGGCGACAGCAGAAGCGUUCACGUCGAGGCCCCUGUCAGAUUCUGGUGAAUCUGCGAAUUCUGCUGU [C7G C29A]
false

// inclusive: self-cleavage at least 0.3? input: GGGGGCCACAGCAGAAGCGUUCACGUCGCGGCCCCUGUGAGAUUCUGGUGAAUCUGCGAACUCUGCUGU [C39G U61C]
true

// inclusive: self-cleavage at least 0.3? input: GGGGGCCACAGCAGAAGCGUUCACGUCGCGGCCCCUGUCAGAUUCUGGUGAAUCUGGGAAUGCUGCUGU [C57G U62G]
true

// inclusive: self-cleavage at least 0.3? input: GGGGGCCACAGCAGAAGCAUUCACGUCGCGGCCCCUGUCAGAUUCUGGUGAAUCUGCGAAUUCGGCUGU [G19A U64G]
false

// inclusive: self-cleavage at least 0.3? input: GGGGGCCACAGCAGAAGCGUUCACGUCGCGGCCCCUGUCAGAUUCUUGUGAAUCUGCGAAUUCUGCGGU [G47U U67G]
true

// inclusive: self-cleavage at least 0.3? input: GGGGGCCACCGCAGAAGCGUUCACGUCGUGGCCCCUGUCAGAUUCUGGUGAAUCUGCGAAUUCUGCUGU [A10C C29U]
false

// inclusive: self-cleavage at least 0.3? input: GGGGGCCACAGCAGAAGCGUUCACGUCGCGGCCCCUGUCAGGUUGUGGUGAAUCUGCGAAUUCUGCUGU [A42G C45G]
true

// inclusive: self-cleavage at least 0.3? input: GGGGGCCACAGCAGAAGCGUUCACGUCGCGGCCCCUGUCAGAUACUGGUGAAUCUGCAAAUUCUGCUGU [U44A G58A]
true

// inclusive: self-cleavage at least 0.3? input: GAGGGCCACAGCUGAAGCGUUCACGUCGCGGCCCCUGUCAGAUUCUGGUGAAUCUGCGAAUUCUGCUGU [G2A A13U]
false

// inclusive: self-cleavage at least 0.3? input: GGGGGCCACAGCAGAAGCGUUCACGUCGCGGCUCCUGUCAAAUUCUGGUGAAUCUGCGAAUUCUGCUGU [C33U G41A]
true

// inclusive: self-cleavage at least 0.3? input: GGGGGCCACAGCAGACGCGUUCACGUCGCGGCCCCUGUCAGAUUUUGGUGAAUCUGCGAAUUCUGCUGU [A16C C45U]
true

// inclusive: self-cleavage at least 0.3? input: GGGGGCCACAGCAGAAGCGUUCACGUCGCGGCUCCUGUCAGAUUCUGGUGAAUCUGCGAAUUCUGCUAU [C33U G68A]
true

// inclusive: self-cleavage at least 0.3? input: GGGGGCCACAGCAGAAGCGUUCACGUCGCGGCCCCUGUCAGAUCCUGGUGAAUCUACGAAUUCUGCUGU [U44C G56A]
true

// inclusive: self-cleavage at least 0.3? input: GGGGGCCACAGCAGAAGUGUUCACGUCGCGGCCCCUGUCAGAUUCUGGUGAAUCUGCGAUUUCUGCUGU [C18U A60U]
true

// inclusive: self-cleavage at least 0.3? input: GGGGGCCACAGCAGAAGCGUUCACGUCGCGGCCCCUGUCAGAUUCUGGUGAAUCUGGGACUUCUGCUGU [C57G A60C]
false

// inclusive: self-cleavage at least 0.3? input: GGGGGCCACAGGAGAAGCGUUCACGUCGCGGCCCAUGUCAGAUUCUGGUGAAUCUGCGAAUUCUGCUGU [C12G C35A]
true
